test system: Red blood cells (RBC); assay: Red blood cell toxicity; type: cell-based
Where no end group is shown, it is not given here.
quantityKind: % kill at 250 μg/ml (%)
Hi! Could you send only the number? It should be in %, unit omitted.

Input: Please report the recorded % kill at 250 μg/ml for KFKKFKKFKKFKKFKKFKKFKKFKKFK [KFK (9), KFK KFK KFK KFK KFK KFK KFK KFK KFK] .
Output: −6

Input: Please report the recorded % kill at 250 μg/ml for KFKKFKKFKKFKKFKKFKKFK [KFK (7), KFK KFK KFK KFK KFK KFK KFK] .
Output: −7

Input: Please report the recorded % kill at 250 μg/ml for H-RFARRFARRFARRFARRFARRFAR-OH [RFAR (6), RFAR RFAR RFAR RFAR RFAR RFAR] .
Output: 72

Input: Please report the recorded % kill at 250 μg/ml for AKKFAKKFAKKFAKKFAKKFAKKF [AKKF (6), AKKF AKKF AKKF AKKF AKKF AKKF] .
Output: 100

---

test system: P. aeruginosa ATCC 15442; assay: HMARQ biocidal kill activity; type: cell-based; conditions: P. aeruginosa ATCC 15442 (gram−), 15 min
Where no end group is shown, it is not given here.
quantityKind: ppm needed for 3.5 log kill at 15 min (ppm)
Hi! Could you send only the number? It should be in ppm, unit omitted.

Input: Please report the recorded ppm needed for 3.5 log kill at 15 min for KFFKKFFKKFFKKFFKKFFKKFFKKFFK [KFFK (7), KFFK KFFK KFFK KFFK KFFK KFFK KFFK] .
Output: 16

Input: Please report the recorded ppm needed for 3.5 log kill at 15 min for H-LKLKLKLKLKLKLKLKLKLKLK-OH [LK (11), LK LK LK LK LK LK LK LK LK LK LK] .
Output: 16

Input: Please report the recorded ppm needed for 3.5 log kill at 15 min for H-FKAFKAFKAFKAFKAFKAFKAFKAFKAFKA-OH [FKA (10), FKA FKA FKA FKA FKA FKA FKA FKA FKA FKA] .
Output: 8

Input: Please report the recorded ppm needed for 3.5 log kill at 15 min for KFAK KFAK KFAK KFAK KFAK KFAK KFAK KFAK KFAK KFAK KFAK KFAK (KFAKKFAKKFAKKFAKKFAKKFAKKFAKKFAKKFAKKFAKKFAKKFAK; Periodic Peptide) [KFAK(12)] .
Output: 16

Input: Please report the recorded ppm needed for 3.5 log kill at 15 min for H-RFARRFARRFARRFARRFARRFAR-OH [RFAR (6), RFAR RFAR RFAR RFAR RFAR RFAR] .
Output: 31

Input: Please report the recorded ppm needed for 3.5 log kill at 15 min for H-FKAFKAFKAFKAFKAFKAFKAFKA-OH [FKA (8), FKA FKA FKA FKA FKA FKA FKA FKA] .
Output: 125

Input: Please report the recorded ppm needed for 3.5 log kill at 15 min for KFK KFK KFK KFK KFK KFK KFK KFK KFK KFK KFK KFK (KFKKFKKFKKFKKFKKFKKFKKFKKFKKFKKFKKFK; Periodic Peptide) [KFK(12)] .
Output: 4

Input: Please report the recorded ppm needed for 3.5 log kill at 15 min for KFK KFK KFK KFK KFK KFK KFK KFK KFK KFK KFK KFK KFK KFK KFK KFK (KFKKFKKFKKFKKFKKFKKFKKFKKFKKFKKFKKFKKFKKFKKFKKFK; Periodic Peptide) [KFK(16)] .
Output: 16

Input: Please report the recorded ppm needed for 3.5 log kill at 15 min for LKLKLKLKLKLKLKLKLKLK [LK (10), LK LK LK LK LK LK LK LK LK LK] .
Output: 8

Input: Please report the recorded ppm needed for 3.5 log kill at 15 min for LKKLLKKLLKKLLKKLLKKLLKKLLKKLLKKL [LKKL (8), LKKL LKKL LKKL LKKL LKKL LKKL LKKL LKKL] .
Output: 4

Input: Please report the recorded ppm needed for 3.5 log kill at 15 min for H-FKAFKAFKAFKAFKAFKAFKAFKAFKA-OH [FKA (9), FKA FKA FKA FKA FKA FKA FKA FKA FKA] .
Output: 4

---

test system: C. albicans 10231; assay type: cell-based; conditions: 10231
Where no end group is shown, it is not given here.
quantityKind: MIC

Input: Please report the recorded MIC for H-FKAFKAFKAFKAFKAFKAFKAFKAFKAFKA-OH [FKA (10), FKA FKA FKA FKA FKA FKA FKA FKA FKA FKA] .
Output: 250 to 500 µg/mL

Input: Please report the recorded MIC for H-LKKLLKKLLKKLLKKLLKKL-OH [LKKL (5), LKKL LKKL LKKL LKKL LKKL] .
Output: >500 µg/mL

Input: Please report the recorded MIC for H-RFARRFARRFARRFARRFARRFAR-OH [RFAR (6), RFAR RFAR RFAR RFAR RFAR RFAR] .
Output: 125 to 250 µg/mL

Input: Please report the recorded MIC for FKAFKAFKAFKAFKAFKA [FKA (6), FKA FKA FKA FKA FKA FKA] .
Output: 250 to 500 µg/mL

Input: Please report the recorded MIC for KAAKKAAKKAAKKAAKKAAKKAAKKAAK [KAAK (7), KAAK KAAK KAAK KAAK KAAK KAAK KAAK] .
Output: >500 µg/mL

Input: Please report the recorded MIC for FKAFKAFKAFKAFKAFKAFKA [FKA (7), FKA FKA FKA FKA FKA FKA FKA] .
Output: 250 to 500 µg/mL

Input: Please report the recorded MIC for LRLRLRLRLRLRLRLRLR [LR (9), LR LR LR LR LR LR LR LR LR] .
Output: 250 to 500 µg/mL

Input: Please report the recorded MIC for KFKKFKKFKKFKKFKKFK [KFK (6), KFK KFK KFK KFK KFK KFK] .
Output: 250 to 500 µg/mL

---

system: Red blood cells (RBC); assay: Red blood cell toxicity; assay type: cell-based
Where no end group is shown, it is not given here.
quantityKind: % kill at 250 μg/ml (%)
Hi! Could you send only the number? It should be in %, unit omitted.

Input: Recorded % kill at 250 μg/ml for FKLRAKIKVRLRAKIKL [D4E1, FKLRAKIKVRLRAKIKL, reference compound] with Red blood cells (RBC), please?
Output: 77.2

Input: Recorded % kill at 250 μg/ml for H-LKKLLKKLLKKLLKKLLKKL-OH [LKKL (5), LKKL LKKL LKKL LKKL LKKL] with Red blood cells (RBC), please?
Output: 100

Input: Recorded % kill at 250 μg/ml for RFARRFARRFARRFARRFARRFARRFAR [RFAR (7), RFAR RFAR RFAR RFAR RFAR RFAR RFAR] with Red blood cells (RBC), please?
Output: 100

Input: Recorded % kill at 250 μg/ml for FKAFKAFKAFKAFKAFKA [FKA (6), FKA FKA FKA FKA FKA FKA] with Red blood cells (RBC), please?
Output: 28

Input: Recorded % kill at 250 μg/ml for H-LKLKLKLKLKLKLKLK-OH [LK (8), LK LK LK LK LK LK LK LK] with Red blood cells (RBC), please?
Output: 13

Input: Recorded % kill at 250 μg/ml for H-FAKKFAKKFAKKFAKKFAKKFAKK-OH [FAKK (6), FAKK FAKK FAKK FAKK FAKK FAKK] with Red blood cells (RBC), please?
Output: 7

Input: Recorded % kill at 250 μg/ml for KFAKKFAKKFAKKFAKKFAKKFAKKFAK [KFAK (7), KFAK KFAK KFAK KFAK KFAK KFAK KFAK] with Red blood cells (RBC), please?
Output: 13.7

Input: Recorded % kill at 250 μg/ml for LKKLLKKLLKKLLKKLLKKLLKKLLKKLLKKL [LKKL (8), LKKL LKKL LKKL LKKL LKKL LKKL LKKL LKKL] with Red blood cells (RBC), please?
Output: 100

Input: Recorded % kill at 250 μg/ml for H-FKAFKAFKAFKAFKAFKAFKAFKAFKA-OH [FKA (9), FKA FKA FKA FKA FKA FKA FKA FKA FKA] with Red blood cells (RBC), please?
Output: 24

Input: Recorded % kill at 250 μg/ml for KFKKFKKFKKFKKFKKFK [KFK (6), KFK KFK KFK KFK KFK KFK] with Red blood cells (RBC), please?
Output: −7

Input: Recorded % kill at 250 μg/ml for H-KKAKKKAKKKAKKKAKKKAKKKAKKKAK-OH [KKAK (7), KKAK KKAK KKAK KKAK KKAK KKAK KKAK] with Red blood cells (RBC), please?
Output: −6

Input: Recorded % kill at 250 μg/ml for H-LKLKLKLKLKLKLKLKLKLKLK-OH [LK (11), LK LK LK LK LK LK LK LK LK LK LK] with Red blood cells (RBC), please?
Output: 24

Input: Recorded % kill at 250 μg/ml for LKLKLKLKLKLKLKLKLKLKLKLK [LK (12), LK LK LK LK LK LK LK LK LK LK LK LK] with Red blood cells (RBC), please?
Output: 35

Input: Recorded % kill at 250 μg/ml for H-KFKKFKKFKKFKKFKKFKKFKKFKKFKKFK-OH [KFK (10), KFK KFK KFK KFK KFK KFK KEK KFK KFK KFK] with Red blood cells (RBC), please?
Output: 3

Input: Recorded % kill at 250 μg/ml for RFARRFARRFARRFARRFARRFARRFARRFAR [RFAR (8), RFAR RFAR RFAR RFAR RFAR RFAR RFAR RFAR] with Red blood cells (RBC), please?
Output: 100

Input: Recorded % kill at 250 μg/ml for LKKLLKKLLKKLLKKLLKKLLKKL [LKKL (6), LKKL LKKL LKKL LKKL LKKL LKKL] with Red blood cells (RBC), please?
Output: 100
